# ASSAYED_TARGET: PI3Kδ (p110δ/p85α) Recombinant Human Protein (Homo sapiens (Human))
# Sequence (O00329 whole entry): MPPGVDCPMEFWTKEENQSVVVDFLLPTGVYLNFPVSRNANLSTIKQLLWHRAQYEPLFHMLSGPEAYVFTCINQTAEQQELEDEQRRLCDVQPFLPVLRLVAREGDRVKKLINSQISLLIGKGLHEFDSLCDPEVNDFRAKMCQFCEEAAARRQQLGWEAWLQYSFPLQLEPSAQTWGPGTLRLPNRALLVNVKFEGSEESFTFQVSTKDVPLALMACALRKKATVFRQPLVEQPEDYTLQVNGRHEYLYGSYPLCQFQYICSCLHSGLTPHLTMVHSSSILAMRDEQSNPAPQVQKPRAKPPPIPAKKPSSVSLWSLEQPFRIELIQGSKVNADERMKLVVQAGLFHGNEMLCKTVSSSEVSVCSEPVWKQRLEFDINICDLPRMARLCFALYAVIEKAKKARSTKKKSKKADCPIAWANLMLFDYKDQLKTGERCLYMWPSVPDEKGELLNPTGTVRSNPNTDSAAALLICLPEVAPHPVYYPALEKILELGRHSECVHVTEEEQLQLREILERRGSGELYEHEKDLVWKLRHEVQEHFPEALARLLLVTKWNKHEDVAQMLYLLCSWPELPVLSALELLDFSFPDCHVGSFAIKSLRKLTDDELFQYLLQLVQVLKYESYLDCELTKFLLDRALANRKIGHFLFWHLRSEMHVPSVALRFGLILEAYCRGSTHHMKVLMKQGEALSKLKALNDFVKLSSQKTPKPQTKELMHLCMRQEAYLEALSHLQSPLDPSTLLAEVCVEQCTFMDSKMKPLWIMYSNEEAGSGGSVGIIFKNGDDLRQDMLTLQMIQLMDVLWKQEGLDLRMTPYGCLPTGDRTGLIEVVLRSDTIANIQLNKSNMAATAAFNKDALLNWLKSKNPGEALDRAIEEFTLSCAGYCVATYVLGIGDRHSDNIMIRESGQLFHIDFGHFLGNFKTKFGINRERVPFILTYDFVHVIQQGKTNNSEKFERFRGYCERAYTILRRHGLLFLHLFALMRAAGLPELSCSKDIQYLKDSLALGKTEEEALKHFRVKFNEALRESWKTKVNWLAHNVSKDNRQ
# Sequence (P27986 whole entry partner): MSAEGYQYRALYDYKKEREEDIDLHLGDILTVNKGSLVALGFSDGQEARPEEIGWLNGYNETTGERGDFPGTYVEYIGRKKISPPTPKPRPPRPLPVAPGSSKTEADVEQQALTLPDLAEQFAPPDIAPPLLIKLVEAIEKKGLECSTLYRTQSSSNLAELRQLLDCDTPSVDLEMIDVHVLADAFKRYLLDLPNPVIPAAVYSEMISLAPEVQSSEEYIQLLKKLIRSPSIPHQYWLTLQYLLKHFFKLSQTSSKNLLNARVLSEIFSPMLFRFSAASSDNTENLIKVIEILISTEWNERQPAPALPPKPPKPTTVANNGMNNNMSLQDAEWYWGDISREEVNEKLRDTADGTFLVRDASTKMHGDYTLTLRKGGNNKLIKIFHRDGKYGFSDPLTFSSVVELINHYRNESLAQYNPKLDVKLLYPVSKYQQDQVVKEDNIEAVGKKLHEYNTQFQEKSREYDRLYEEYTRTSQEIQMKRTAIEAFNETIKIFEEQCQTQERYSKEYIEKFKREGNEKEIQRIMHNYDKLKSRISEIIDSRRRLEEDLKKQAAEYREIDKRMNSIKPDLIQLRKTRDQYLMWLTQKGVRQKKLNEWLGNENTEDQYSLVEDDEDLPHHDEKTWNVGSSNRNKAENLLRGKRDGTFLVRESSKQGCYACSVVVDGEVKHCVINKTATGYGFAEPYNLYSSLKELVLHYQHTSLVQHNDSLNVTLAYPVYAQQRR
# ASSAY_INFO: PI3Kδ Scintillation Proximity Assay
# PARTICULARS: 20 μM PIP2, 2 μM ATP, 3.4 nM PI3Kδ, 120 min
Counter-ions that a name gives are not always drawn.
Listed next: entries and their corresponding IC50.

Recorded IC50, per entry:
Cc1[nH]ncc1-c1cn2c(-c3cc4c(c(S(C)(=O)=O)c3)C(=O)N([C@@H](C)C3CC3)C4)cnc2c(N)n1 [Example 37, trifluoroacetate salt] = ≤ 500 nM
CC(C)NC(=O)c1cn2c(-c3cc4c(c(S(C)(=O)=O)c3)C(=O)N([C@@H](C)C3CC3)C4)cnc2c(N)n1 (single isomer, unassigned) [Example 28, trifluoroacetate salt] = ≤ 500 nM
C[C@@H](C1CC1)N1Cc2cc(-c3cnc4c(N)nc(C(=O)N5CC(F)(F)C5)cn34)cc(S(C)(=O)=O)c2C1=O [Example 29d, trifluoroacetate salt] = ≤ 500 nM

Asked: Entry Cc1cc(-c2cnc3c(N)ncnn23)cc2cnn(C(C)C3CC3)c12 (stereo not drawn) [Example 19, trifluoroacetate salt] has what IC50?
Given back: ≥ 2000 nM

Asked: Entry NCC(C1CC1)N1Cc2cc(-c3cnc4c(N)nc(C(F)(F)F)cn34)ccc2C1=O (racemic) [Example 42, trifluoroacetate salt] has what IC50?
Given back: ≥ 2000 nM

Asked: Entry CSc1cc(-c2cnc3c(N)nc(C(F)(F)F)cn23)cc2c1C(=O)N([C@@H](C)C1CC1)C2 [Example 2] has what IC50?
Given back: ≤ 500 nM
